assay: Intrinsic dissolution rate and solubility in 0.1 N HCl with 1% Tween 80 (USP <1087>); assay type: physicochemical; conditions: 0.1 N HCl with 1% Tween 80, 37 °C, aqueous with cosolvent or surfactant or cyclodextrin, 500 mL, pellet about 75 mg, 105 min, read-out: Solubility, time point 105 min
Counter-ions that a name gives are not always drawn.
result type: solubility at 105 min (µg/mL)
Response body: numeric value in µg/mL, unit text excluded.

I have this compound here, [2H]C([2H])([2H])C(c1cc2nnc(-c3cc(F)ccc3F)n2nc1OCc1ncnn1C)(C([2H])([2H])[2H])C([2H])([2H])[2H] [Hydrochloride Salt] , and I need its recorded solubility at 105 min.
0.989

# credit: patent US20250275966A1
